Experiment: Cellular Toxicity (caspase-3) Mesangial (AID 660);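 further: combined caspase 3 and 7 activity read by Caspase-Glo luminescence; cells exposed to compound for 16 h before the caspase read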
Details: mesangial cells, normalized: DMSO 0%, 100 µM tamoxifen 100%; at 91.7 µM (top of the series)
Source text: NIH Chemical Genomics Center [NCGC] NIH Molecular Libraries Screening Centers Network [MLSCN] National Institutes of Environmental Health Sciences [NIEHS] National Toxicology Program [NTP] We have developed a 1536-well cell-based assay for quantitative high throughput screening (qHTS) against a number of cell lines to determine in vitro caspase 3/7 of small molecules. […] 8. Detection; Luminescence; Viewlux plate reader […]
measure name: caspase-3 activation (%)
Your answer should be a plain number; it is taken to be in %.

QUERY: # lookup: caspase-3 activation of `O=C(OCC(COC(=O)c1ccccc1)(COC(=O)c1ccccc1)COC(=O)c1ccccc1)c1ccccc1`
RESULT: -0.308

QUERY: // caspase-3 activation lookup, key: `CC/C(=C(\c1ccccc1)c1ccc(OCCN(C)C)cc1)c1ccc(O)cc1`
RESULT: -2.42

QUERY: Look up caspase-3 activation: `CO[C@H]1/C=C/O[C@@]2(C)Oc3c(C)c(O)c4c(O)c(c5c(c4c3C2=O)NC2(CCN(CC(C)C)CC2)N=5)=NC(=O)/C(C)=C\C=C\[C@H](C)[C@H](O)[C@@H](C)[C@@H](O)[C@@H](C)[C@H](OC(C)=O)[C@@H]1C`
RESULT: 0.833

QUERY: So what's the measured caspase-3 activation for this one? `C/C=C1\C(=O)C[C@H]2[C@@H]3CCC4=CC(=O)CC[C@]4(C)[C@H]3CC[C@]12C`
RESULT: 1.02

====

Assay: AP1 Signaling Pathway (AID 357);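 further: ME-180 reporter cells stimulated with EGF at its EC50 level; on the % scale 0 is the no-effect control and ±100 the full control effect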
Conditions: ME-180 (cervical carcinoma) AP-1-bla reporter, EGF-induced, beta-lactamase ratio, 5 h; at 17.2 µM (top of the series) unless noted
Inconclusive results are not listed.
Label rule, in plain words: activity change, negative = inhibition of -10% and up is class 1, under -10% is class 0.

QUERY: Evaluate OC(CNCCCN1CCCCC1)COc1ccccc1 (stereo not drawn) : activity change, negative = inhibition at minimum -10%?
RESULT: class 0

QUERY: Kindly determine if activity change, negative = inhibition recorded for CCOC(=O)NC1(C(F)(F)F)C(=O)NC(C)=C1C#N (stereo not drawn) is above or exactly -10%.
RESULT: class 1

QUERY: Determine whether this molecule has activity change, negative = inhibition no lower than -10%: Fc1ccc(OCCOCCNCC2CCCO2)cc1 (stereo not drawn)
RESULT: class 1

QUERY: # check: activity change, negative = inhibition of `COC(=O)CSc1ncnc2c1sc1nc(-c3ccco3)c3c(c12)CC(C)(C)OC3` is greater than or equal to -10%
RESULT: class 1

QUERY: In plain terms: is recorded activity change, negative = inhibition at least -10% for Nc1nc2n(n1)C(c1cccs1)CC(c1ccc(F)cc1)N2 (stereo not drawn) ?
RESULT: class 1

QUERY: hey, is activity change, negative = inhibition for this one >= -10%? `O=C(NCc1ccco1)c1ccc(=O)[nH]n1`
RESULT: class 1

QUERY: Given the entry O=C(CNC1C(=O)Nc2ccccc21)Sc1ccccc1 (stereo not drawn) , answer whether its activity change, negative = inhibition meets or surpasses -10%.
RESULT: class 1

QUERY: API: above_or_equal(metric=activity change, negative = inhibition, cutoff=-10%) for item `CCOC(=O)c1ccc(N2CC(O)=C(c3nc4ccccc4c(=O)[nH]3)C2=N)cc1`
RESULT: class 0

QUERY: Hello, I need to know if `CC1CCN(c2oc(-c3ccccc3Cl)nc2C#N)CC1` has measured activity change, negative = inhibition not below -10%. Thanks!
RESULT: class 0

QUERY: Hi team, for CCOC(=O)C(C)c1nc2ccccc2[nH]c1=O (stereo not drawn) , is the recorded activity change, negative = inhibition at or above -10%?
RESULT: class 1

QUERY: Does `COc1ccc(Cn2c(O)cc(=O)[nH]c2=O)cc1` have a reported activity change, negative = inhibition of at least -10%?
RESULT: class 1

QUERY: Entry CCCCC(=O)NC(Nc1ccc(C)cn1)(C(=O)OCC)C(F)(F)F (stereo not drawn) : is its activity change, negative = inhibition no less than -10%?
RESULT: class 1

QUERY: Form field: activity change, negative = inhibition at least -10%? Entry: `CS(=O)(=O)c1ccc2nc(NC(NC(=O)c3ccco3)(C(F)(F)F)C(F)(F)F)sc2c1`
RESULT: class 0

====

Test system: CP329
Test: qHTS profiling for inhibitors of Plasmodium falciparum proliferation (AID 504749); further: nearly all actives have a fitted effect of over 60% in size
Conditions: P. falciparum in erythrocytes, SYBR Green DNA, 72 h; series mostly up to 28.7 µM
Records with an inconclusive call do not appear. Calls of active or inactive are those of the source. Calls come from the whole dose curve; as a rule, active = well fitted inhibition curve with a large enough effect; inconclusive = small, poorly fitted or top-dose-only effect; inactive = flat fitted curve, though single readings scatter.
Answer with one of the outcomes given here: active, inactive

QUERY: Check the results log: what was the call for CC12C=CC(=O)C=C1[C@@H](F)CC1C2C(O)CC2(C)C1CC[C@]2(O)C(=O)CO (some centres undefined) ?
RESULT: inactive

QUERY: Field: outcome | Entry: Cc1cn([C@H]2CC(F)[C@@H](CO)O2)c(=O)[nH]c1=O (some centres undefined)
RESULT: inactive

QUERY: Assay outcome for C[C@H]1OC(OC2C(O)[C@@H](O)C(OC3C(O)[C@@H](O)C(O)O[C@@H]3CO)O[C@@H]2CO)[C@H](O)C(O)C1N[C@H]1C=C(CO)[C@@H](O)[C@H](O)C1O (some centres undefined) : what was it?
RESULT: inactive

QUERY: Just curious, what result did `CCOc1ccccc1O[C@@H](c1ccccc1)[C@@H]1CNCCO1` get here?
RESULT: inactive

QUERY: Called result for CC[C@@]1(O)CC2CN(CCc3c([nH]c4ccccc34)[C@](C(=O)OC)(c3cc4c(cc3OC)N(C)C3[C@@](O)(C(=O)OC)C(OC(C)=O)[C@]5(CC)C=CCN6CC[C@@]43C65)C2)C1 (some centres undefined)
RESULT: active

QUERY: Check the results log: what was the call for `O=C1[C@@H]2C[C@@H]3C[C@H]1C[C@@](O)(C3)C2` ?
RESULT: inactive

QUERY: How was `C=C1[C@@H]2CC[C@H](C2)C1(C)C` classified in this test?
RESULT: inactive

QUERY: Lab log entry: CC1CCC(C(C)C)C(O)C1 (centres undefined) — outcome as called in the assay?
RESULT: inactive

QUERY: What classification did Cc1ccc(/C=C2/C(=O)C3(C)CCC2C3(C)C)cc1 (centres undefined) end up with in this test?
RESULT: inactive

QUERY: Dear colleague, could you share the recorded outcome for CNC(=O)C(N)CSC(C)C1=C(C)c2cc3[n-]c(cc4nc(cc5[n-]c(cc1n2)c(C)c5CCC(=O)O)C(CCC(=O)O)=C4C)c(C)c3C(C)SCC(N)C(=O)NC.[Fe+2] (centres undefined) when you have a moment?
RESULT: inactive

QUERY: Recorded test outcome, item `C=C1C(=O)O[C@@H]2[C@@H]1CC/C(C)=C\CC[C@@]1(C)O[C@H]21`
RESULT: inactive

QUERY: Please indicate how the test categorized `C[C@@](Cc1ccccc1)(NC(=O)CN)c1ccccc1` .
RESULT: inactive

QUERY: Kindly provide the recorded test outcome for the following compound: CCCCC(=O)OC1CCC2C3CCc4cc(O)ccc4C3CC[C@]12C (some centres undefined)
RESULT: inactive

QUERY: Name the outcome recorded for `CCN(CC)C(=O)Nc1ccc(OC[C@H](O)CNC(C)(C)C)c(C(C)=O)c1` in the assay.
RESULT: inactive

QUERY: Would you mind telling me which call this test gave Nc1ncn(C2C[C@H](O)[C@@H](CO)O2)c(=O)n1 (some centres undefined) ?
RESULT: inactive

QUERY: Returns: the outcome recorded for `C=C1/C(=C\C=C2/CCC[C@]3(C)[C@@H]([C@H](C)/C=C/[C@@H](O)C4CC4)CC[C@@H]23)C[C@@H](O)C[C@@H]1O` in this assay.
RESULT: inactive

QUERY: Tell me the assay call for O=c1[nH]c(=O)n(C2C[C@H](O)[C@@H](CO)O2)cc1C(F)(F)F (some centres undefined) please.
RESULT: inactive

QUERY: Would you mind telling me which call this test gave `COc1ccc(S(=O)(=O)N2c3ccc(Cl)cc3[C@](O)(c3ccccc3Cl)[C@@H]2C(=O)N2CCC[C@H]2C(N)=O)cc1OC` ?
RESULT: inactive

QUERY: Record lookup: outcome of this test for OCC(CO)NC1C[C@](O)(CO)[C@@H](O)[C@H](O)[C@H]1O (some centres undefined) ?
RESULT: inactive

QUERY: Field: outcome | Entry: C=C[C@@]1(C)C[C@H](OC(=O)CSC(C)(C)CNC(=O)[C@@H](N)C(C)C)[C@@]2(C)C(C)CC[C@@]3(CCC(=O)[C@@H]32)[C@H](C)[C@H]1O (some centres undefined)
RESULT: active

QUERY: Test call, this compound: `O=C1C(I)=CC(=C(c2cc(I)c(O)c(I)c2)c2ccccc2C(=O)O)C=C1I`
RESULT: inactive

QUERY: Please state the recorded outcome for this compound: `CC(=O)NC[C@@H]1CN(c2ccc(N3CCOCC3)c(F)c2)C(=O)O1`
RESULT: inactive

QUERY: Any idea what this test logged for `CCCSS/C(CCO)=C(/C)N(C=O)Cc1cnc(C)nc1N` ?
RESULT: inactive

QUERY: Could you kindly confirm the outcome this assay logged for C=C1C(n2cnc3c(=O)[nH]c(N)nc32)C[C@H](O)[C@H]1CO (some centres undefined) ?
RESULT: inactive

QUERY: Hello, I am checking results. What call was entered for OC[C@@H](O)C(O[C@@H]1O[C@@H](CO)[C@H](O)[C@H](O)[C@H]1O)[C@H](O)[C@@H](O)CO (some centres undefined) ?
RESULT: inactive

QUERY: Hello, I am checking results. What call was entered for `CCN(CC)C(=O)[C@@]1(c2ccccc2)C[C@@H]1CN` ?
RESULT: inactive

QUERY: Call for entry O=C(O)CC(O)CC(O)/C=C/c1c(C2CC2)nc2ccccc2c1-c1ccc(F)cc1 (centres undefined) :
RESULT: inactive

QUERY: Any idea what this test logged for `COc1ccc(C(=O)/C(Br)=C/C(=O)O)cc1` ?
RESULT: inactive

QUERY: In this assay, the call recorded for C[C@]12CC[C@@H]3c4ccc(O)cc4CC[C@H]3[C@@H]1CCC2OC(=O)CCC1CCCC1 (some centres undefined) was what?
RESULT: inactive
